- study-target: Type I 5α-Reductase from Human Scalp (Homo sapiens, UniProt P18405)
- Construct: Scalp punch biopsies from graft recipient sites were obtained from human hair transplant procedures; from tissue; host or cells: human scalp punch biopsies (hair transplant graft recipient sites), homogenate, 100,000×g pellet
- Sequence (P18405 whole entry): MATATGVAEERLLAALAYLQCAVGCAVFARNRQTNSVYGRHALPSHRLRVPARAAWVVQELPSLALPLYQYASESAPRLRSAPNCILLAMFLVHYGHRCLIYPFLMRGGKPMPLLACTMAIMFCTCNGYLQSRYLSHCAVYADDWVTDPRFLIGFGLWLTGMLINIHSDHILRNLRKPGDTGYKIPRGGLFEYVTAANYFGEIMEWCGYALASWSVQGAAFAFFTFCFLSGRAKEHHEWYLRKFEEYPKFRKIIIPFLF
- assay-notes: Human Type I 5α-reductase assay (conversion of [3H]-testosterone to 5α-reduced metabolites)
- Format: biochemical
- experimental-parameters: pH 7.5, 0.3 μM; 50 nM [3H]-testosterone, pH 7.5, 25°, 180 min; compared to control reaction mixtures; read-out: percent inhibition of Type I AR
Param threshold (80%) applies to inhibition at 0.3 µM; output T when value >= threshold, F when value < threshold.

// query Does inhibition at 0.3 µM meet or surpass 80% for CN1C(=O)CC[C@]2(C)c3ccc(-c4c5ccccc5cc5ccccc45)cc3CC[C@@H]12 ?
// result F

// query Can CN1C(=O)CC[C@]2(C)c3ccc(SC(c4ccccc4)c4ccccc4)cc3CC[C@@H]12 be said to have inhibition at 0.3 µM at or above 80%?
// result T

// query Say whether Cc1ccc(-c2ccc3c(c2)CC[C@H]2N(C)C(=O)CC[C@]32C)cc1 shows inhibition at 0.3 µM of 80% or more.
// result T

// query Does the compound CN1C(=O)CC[C@]2(C)c3ccc(-c4cccc(F)c4F)cc3CC[C@@H]12 have recorded inhibition at 0.3 µM that is 80% or more?
// result T

// query Exam item: decide whether the reported inhibition at 0.3 µM for CN1C(=O)CC[C@]2(C)c3ccc(-c4ncccn4)cc3CC[C@@H]12 is at least 80%.
// result F

// query Is reported inhibition at 0.3 µM greater than or equal to 80% here: CN(C)c1cccc2c(S(=O)(=O)Nc3cccc(-c4ccc5c(c4)CC[C@H]4N(C)C(=O)CC[C@]54C)c3)cccc12
// result T

// query Does CN1C(=O)CC[C@]2(C)c3ccc(-c4ccc(NC(=O)C(C)(C)C)nc4)cc3CC[C@@H]12 have a reported inhibition at 0.3 µM of at least 80%?
// result T

// query State whether the measured inhibition at 0.3 µM reaches 80%, counting equality as reaching it, for CN1C(=O)CC[C@]2(C)c3ccc(-c4c(F)cc(F)cc4F)cc3CC[C@@H]12
// result T

// query Hi, just wondering whether CN1C(=O)CC[C@]2(C)c3ccc(-c4ccc5oc(=O)ccc5c4)cc3CC[C@@H]12 shows inhibition at 0.3 µM of 80% or higher.
// result F

// query Could you verify whether the entry CN1C(=O)CC[C@]2(C)c3ccc(-c4cc(C(F)(F)F)cc(C(F)(F)F)c4)cc3CC[C@@H]12 shows inhibition at 0.3 µM of no less than 80%?
// result T

// query Answer whether inhibition at 0.3 µM of CN1C(=O)CC[C@]2(C)c3ccc(-c4nc5ccccc5o4)cc3CC[C@@H]12 is greater than or equal to 80%.
// result F

// query Answer whether inhibition at 0.3 µM of CN1C(=O)CC[C@]2(C)c3ccc(-c4ccc5c6c(cccc46)C(=O)N(C4CCN(Cc6ccccc6)CC4)C5=O)cc3CC[C@@H]12 is greater than or equal to 80%.
// result T

// query Could you verify whether the entry CN1C(=O)CC[C@]2(C)c3ccc(SCc4cc5ccccc5cn4)cc3CC[C@@H]12 shows inhibition at 0.3 µM of no less than 80%?
// result F

// query Identify whether the reported inhibition at 0.3 µM of the following compound is 80% or greater: CN1C(=O)CC[C@]2(C)c3ccc(-c4cc(C(C)(C)C)c(O)c(C(C)(C)C)c4)cc3CC[C@@H]12
// result F
